test system: SN12C renal; assay: NCI tumour cell line growth inhibition, 48 h
The following compounds are shown together with reported GI50 values.

Challenge: // lookup GI50 for CCCCCCCOc1c(OC)cc(C2CC(=O)Nc3c2c(C)nn3-c2nc3ccccc3[nH]2)cc1OC (stereo unspecified)
Response given: 3.48 µM

Challenge: // lookup GI50 for Cc1ccc2c(c1)C(=O)c1c-2n(CCCBr)c(=O)c2cc([N+](=O)[O-])ccc12
Response given: 46.4 µM

* * *

tested on: SK-OV-3 ovarian; test: NCI tumour cell line growth inhibition, 48 h
readout type: TGI (µM)
Note: unit µM is implicit; provide only the numeric part.

Illustrative cases are given below, each with its answer.
Cc1ccc(S(=O)(=O)NNC2(NS(=O)(=O)c3ccc(Cl)cc3)C(Cl)=C(Cl)C(=O)c3ccccc32)cc1 (configuration not stated); 32.2
COC(=O)C(F)C(Br)C(=O)OC (configuration not stated); 34.6

Field: next compound
Challenge: // lookup TGI for C=C1C(=O)O[C@H]2[C@H]3O[C@@H](C[C@@H]12)[C@@]1(C)CC[C@H](O1)C(C)=CCC[C@H]3C
Response given: 16.2

* * *

system: LOX IMVI melanoma; experiment: NCI tumour cell line growth inhibition, 48 h
The following molecules are shown together with reported TGI values.

Illustrative cases are given below, each with its answer.
CCCCN(CCCC)c1ccc(C(=NC(C)CCCN(CC)CC)c2ccc(N(C)C)cc2)cc1 (stereo not given); 1.46 µM
O=C1/C(=C/c2c(Cl)[nH]c3ccccc23)c2ccccc2N1c1ccccc1; 15.6 µM
CCCCCC[C@H]1C(=O)O[C@H](C)[C@H](NC(=O)c2cccc(NC=O)c2OC)C(=O)O[C@@H](C)[C@@H]1OC(=O)CC(C)C (tested in a mixture with another compound); > 100 µM
Nc1ccc(-c2ccc(N)cc2I)c(I)c1; 31.2 µM
O=C(O)CC1(CC(=O)O)Nc2ccccc2SC1=O; > 100 µM
Cc1c(Cl)cccc1NC1=C(Cl)C(=O)N(Cc2ccccc2)C1=O; 47.8 µM
COc1cc([C@@H]2c3cc4c(cc3[C@@H](OC(=O)c3ccccc3)C3COC(=O)[C@@H]32)OCO4)cc(OC)c1O (stereo not given in full); 84.5 µM
OCC1OC(n2cnc3c(=S)nc[nH]c32)C(O)C1O (stereo not given); > 2500 µM
C/C=C/[C@@H]1OC(=O)C2=C[C@@H](O)[C@@H](/C=C/C)O[C@H]21; 18.5 µM
CSc1ccccc1C#Cc1ccccc1C#CCCCCO; 19.2 µM

Challenge: // lookup TGI for N#Cc1cc([N+](=O)[O-])ccc1NC(=O)/C(=N/N)C(C(=O)c1ccc(Cl)c(Cl)c1)C1OC(=O)c2ccccc21 (stereo not given)
Response given: > 100 µM

Challenge: // lookup TGI for O=c1[nH]c(-c2ccc(-c3nc4cc([N+](=O)[O-])ccc4c(=O)[nH]3)cc2)nc2cc([N+](=O)[O-])ccc12
Response given: > 100 µM

Challenge: // lookup TGI for C[n+]1cccc2ccc(OC(=O)c3ccccc3)cc21
Response given: > 100 µM

Challenge: // lookup TGI for Cc1cc2nc(-c3c(F)cccc3F)n(Cc3c(F)cccc3F)c2cc1C
Response given: 27.4 µM

Challenge: // lookup TGI for CC(C)(C#N)c1cc(C(=O)Nc2cc(Nc3ncccc3-c3ncnc4nc[nH]c34)ccc2F)cc(C(F)(F)F)c1
Response given: 2.41 µM

Challenge: // lookup TGI for CC(=O)O[C@H]1CCn2c3c(c(C)c21)C(=O)C(N1CC1)=C(C)C3=O
Response given: > 10 µM

Challenge: // lookup TGI for c1ccc(C2OCCO2)c(OCCOc2cc(OCCOc3ccccc3C3OCCO3)c(OCCOc3ccccc3C3OCCO3)cc2OCCOc2ccccc2C2OCCO2)c1
Response given: > 100 µM

Challenge: // lookup TGI for C=C1CCc2occ(C)c2C2C1C1=C(CC(C)C1=O)C1OC12C (stereo not given)
Response given: > 100 µM

Challenge: // lookup TGI for Nc1nc(N)c(N=O)c(OCC2CCCCC2)n1
Response given: > 100 µM

Challenge: // lookup TGI for O=C1CCCCC/C1=C\c1ccc(Cl)cc1
Response given: > 100 µM
